- measurement.target: PhoP (Mycobacterium tuberculosis, UniProt P71814 1-247)
- assay: ITC
Each entry falls into one class according to its Kd; the ranges are group 1: < 100 nM; group 2: ≥ 100 nM and < 500 nM; group 3: ≥ 500 nM

Inquiry: Hey, which category is espA -215 (dsDNA) DNA 1: CGCATTGTCGCAGCGCAGTTGCAGGAGGGCAA DNA 2: TTGCCCTCCTGCAACTGCGCTGCGACAATGCG in, do you know?
Reply text: group 3

Inquiry: Which Kd category applies to Rv2633c (dsDNA) DNA 1: TGATTCACAGCTACCTCACATTAATGGG DNA 2: CCCATTAATGTGAGGTAGCTGTGAATCA here?
Reply text: group 1

Inquiry: State the band of Rv3312a (dsDNA) DNA 1: TGGGTCACAGCGAGTAATCAGCAAGTTC DNA 2: GAACTTGCTGATTACTCGCTGTGACCCA
Reply text: group 2

Inquiry: Determine which band this binder sits in: fadD9 (dsDNA) DNA 1: CATCTCACAGCCGATCAGCAGCAGGCTT DNA 2: AAGCCTGCTGCTGATCGGCTGTGAGATG
Reply text: group 1

Inquiry: Given Rv2331 (dsDNA) DNA 1: GTCCTCGCAGCAAGAAAACAGCGAAAGC DNA 2: GCTTTCGCTGTTTTCTTGCTGCGAGGAC , name the class its Kd places it in.
Reply text: group 2

Inquiry: Tag the class for Rv3881c (dsDNA) DNA 1: ATGGTCACAGTCGGGCCACAGTTCGAG DNA 2: CTCGAACTGTGGCCCGACTGTGACCAT
Reply text: group 3

Inquiry: Which of the defined bands does the recorded Kd of Rv3134c (dsDNA) DNA 1: GCCATTTCTGGGACTTTGCTGTGAAAAGCTG DNA 2: CAGCTTTTCACAGCAAAGTCCCAGAAATGGC sit within?
Reply text: group 1

Inquiry: Hi there! Could you help me figure out the category for Rv3877 (dsDNA) DNA 1: CTCGGCGCAGCGCGCGCTCAGCGACGCC DNA 2: GGCGTCGCTGAGCGCGCGCTGCGCCGAG please?
Reply text: group 3

Inquiry: Class for cdh (dsDNA) DNA 1: GCGAGCAGGGCTGCCGCACAGCGATCTT DNA 2: AAGATCGCTGTGCGGCAGCCCTGCTCGC ?
Reply text: group 3

Inquiry: Which class is correct for the following binder? Rv2010 (dsDNA) DNA 1: GAACTCGTGGCCGCCGCACAGCGGATGT DNA 2: ACATCCGCTGTGCGGCGGCCACGAGTTC
Reply text: group 3

Inquiry: Category of phoP -55 (dsDNA) DNA 1: AGACTACTGGCAACGAGCTTTCAGGAATTACAC DNA 2: GTGTAATTCCTGAAAGCTCGTTGCCAGTAGTCT , please.
Reply text: group 2

Inquiry: Which class is correct for the following binder? cfp2 (dsDNA) DNA 1: TCGCTCACAGCTACGACACAGACTTGCC DNA 2: GGCAAGTCTGTGTCGTAGCTGTGAGCGA
Reply text: group 1

Inquiry: Would you mind sorting Rv0520 (dsDNA) DNA 1: GCCCGCACAGCCACGCCGTAGCACCGGC DNA 2: GCCGGTGCTACGGCGTGGCTGTGCGGGC into the appropriate category?
Reply text: group 2

Inquiry: Class (by measured Kd) for fas (dsDNA) DNA 1: CGGCGTAGAGCGAATTCCCAGCATAACG DNA 2: CGTTATGCTGGGAATTCGCTCTACGCCG
Reply text: group 2

Inquiry: State the band of pks3 -236 (dsDNA) DNA 1: CGACGTCTGGTAGCGGCATGGCAACGGCCTGTG DNA 2: CACAGGCCGTTGCCATGCCGCTACCAGACGTCG
Reply text: group 2

Inquiry: Please report the category associated with Rv1217c (dsDNA) DNA 1: GAGGTCGCAGCCGAGCAACAGGTGGCAA DNA 2: TTGCCACCTGTTGCTCGGCTGCGACCTC , nothing else.
Reply text: group 3

Inquiry: Looking at aroG (dsDNA) DNA 1: TTCGTCTCATCACGTCCACAGACGATGC DNA 2: GCATCGTCTGTGGACGTGATGAGACGAA , which class would you pick?
Reply text: group 3

Inquiry: Band for cadI (dsDNA) DNA 1: CGGTACACAGCGCTTGCAGGGCTTCAGG DNA 2: CCTGAAGCCCTGCAAGCGCTGTGTACCG ?
Reply text: group 2

Inquiry: Please let me know in which category the item Rv1639c (dsDNA) DNA 1: CGGATCACAGGAAACCCCCAACAAATCA DNA 2: TGATTTGTTGGGGGTTTCCTGTGATCCG belongs.
Reply text: group 2

Inquiry: Class? Entry: pks2 (dsDNA) DNA 1: AAAGACACAGCTACATCGAAGGATTGCT DNA 2: AGCAATCCTTCGATGTAGCTGTGTCTTT
Reply text: group 2

Inquiry: Class (by measured Kd) for sirA (dsDNA) DNA 1: CGTCTCCCAGCGGATTCCCGGGTCGGCC DNA 2: GGCCGACCCGGGAATCCGCTGGGAGACG
Reply text: group 2

Inquiry: Sort fbpA (dsDNA) DNA 1: ATACTGACAGCAAGATCACAATTGAGCC DNA 2: GGCTCAATTGTGATCTTGCTGTCAGTAT into one of the categories.
Reply text: group 1
